- target.system: FGFR1 (UniProt P11362)
- Sequence (P11362 whole entry, looked up): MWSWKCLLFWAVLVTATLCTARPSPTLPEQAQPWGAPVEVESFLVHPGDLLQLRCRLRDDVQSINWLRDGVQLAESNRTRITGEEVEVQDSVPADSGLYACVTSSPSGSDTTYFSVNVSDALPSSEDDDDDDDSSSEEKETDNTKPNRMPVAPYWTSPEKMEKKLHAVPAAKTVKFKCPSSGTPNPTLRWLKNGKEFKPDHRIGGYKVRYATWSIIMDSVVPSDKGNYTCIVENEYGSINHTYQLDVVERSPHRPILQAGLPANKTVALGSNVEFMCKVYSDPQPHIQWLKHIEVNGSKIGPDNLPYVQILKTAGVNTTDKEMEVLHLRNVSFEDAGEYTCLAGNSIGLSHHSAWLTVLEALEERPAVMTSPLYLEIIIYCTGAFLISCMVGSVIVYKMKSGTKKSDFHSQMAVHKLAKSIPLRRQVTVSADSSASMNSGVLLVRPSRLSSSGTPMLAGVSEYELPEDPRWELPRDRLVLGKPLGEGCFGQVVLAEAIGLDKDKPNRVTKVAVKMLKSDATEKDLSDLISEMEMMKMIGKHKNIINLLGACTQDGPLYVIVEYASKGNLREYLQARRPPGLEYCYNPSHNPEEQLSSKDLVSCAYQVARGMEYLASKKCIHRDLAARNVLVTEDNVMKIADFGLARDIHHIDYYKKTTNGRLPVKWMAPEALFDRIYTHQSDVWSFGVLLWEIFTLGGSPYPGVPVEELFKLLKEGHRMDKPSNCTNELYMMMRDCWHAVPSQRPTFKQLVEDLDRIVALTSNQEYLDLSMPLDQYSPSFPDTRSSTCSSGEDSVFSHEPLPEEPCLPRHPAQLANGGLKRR
- protocol.text: phosphorylation enrichment, bacterial display (enrichment ratio); higher = better substrate or ligand; peptides without Tyr show the background;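 further: 11-residue human phosphosite peptides and single-mutation variants displayed on the E. coli surface, counted by deep sequencing, each peptide's frequency after selection divided by its frequency in the unselected input library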;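 further: frequency after pTyr selection over input frequency; kinase dosed for 20-30% of maximal phosphorylation in three min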
Heads up, the class ranges for phosphorylation enrichment are low group = under 0.5, middle group = from 0.5 up to 0.6, high group = 0.6 and over

Use these answered entries as a reference point.
{"sequence.text": "VSAPEYGPKLK [TBC1D14_Y46_L41V]", "target.system": "FGFR1 (UniProt P11362)", "assigned.category": "low group"}
{"sequence.text": "TVVVPYEPPEV [TP53_Y220_S215T]", "target.system": "FGFR1 (UniProt P11362)", "assigned.category": "middle group"}
{"sequence.text": "PKKKQYTSIHH [APP_Y728_L723P]", "target.system": "FGFR1 (UniProt P11362)", "assigned.category": "high group"}

Form: Item = FGSLLYKFAFK [FANCD2_Y458_YF] ; Class = ?
middle group

Form: Item = LQPNNCQFCGG [CSF1R_Y969_Y969C] ; Class = ?
high group
